Hey, just so you know, these numbers are from ChEMBL document CHEMBL5303573.

assay: The drug is tested on Bacteroides fragilis strain: HMW610 for biotransformation. The drug concentrations were measured before and after a 12-h incubation by liquid-chromatography-coupled mass spectrometry (LC–MS); details: 2 µM
Readout name: Bacterial Biotransformation

Reference set (5 entries):
Molecule: COc1ccc2c(c1)c(CC(=O)O)c(C)n2C(=O)c1ccc(Cl)cc1
Endpoint result: Compound NOT metabolized

Molecule: CN1CCc2cccc3c2[C@H]1Cc1ccc(O)c(O)c1-3
Endpoint result: Compound NOT metabolized

Molecule: CN(C)CCC=C1c2ccccc2C=Cc2ccccc21
Endpoint result: Compound NOT metabolized

Molecule: OC(c1cc(C(F)(F)F)nc2c(C(F)(F)F)cccc12)C1CCCCN1 (stereo unspecified)
Endpoint result: Compound NOT metabolized

Molecule: CN(C(=O)CN(CCO)CC(=O)N(C)C(C)(C)Cc1ccccc1)C(C)(C)Cc1ccccc1
Endpoint result: Compound NOT metabolized

// CCCC(=O)Nc1ccc(OCC(O)CNC(C)C)c(C(C)=O)c1 (stereo unspecified) : Bacterial Biotransformation value = Compound NOT metabolized

Noted for CC12CC3CC(C)(C1)CC(N)(C3)C2 [MEMANTINE] : its Bacterial Biotransformation reads Compound NOT metabolized

Record `Nc1nnc(-c2cccc(Cl)c2Cl)c(N)n1` . Reported Bacterial Biotransformation: Compound NOT metabolized
